Molecular target: Cytochrome P450 3A4 (Homo sapiens) (UniProt P08684)
Sequence (P08684 whole entry, looked up): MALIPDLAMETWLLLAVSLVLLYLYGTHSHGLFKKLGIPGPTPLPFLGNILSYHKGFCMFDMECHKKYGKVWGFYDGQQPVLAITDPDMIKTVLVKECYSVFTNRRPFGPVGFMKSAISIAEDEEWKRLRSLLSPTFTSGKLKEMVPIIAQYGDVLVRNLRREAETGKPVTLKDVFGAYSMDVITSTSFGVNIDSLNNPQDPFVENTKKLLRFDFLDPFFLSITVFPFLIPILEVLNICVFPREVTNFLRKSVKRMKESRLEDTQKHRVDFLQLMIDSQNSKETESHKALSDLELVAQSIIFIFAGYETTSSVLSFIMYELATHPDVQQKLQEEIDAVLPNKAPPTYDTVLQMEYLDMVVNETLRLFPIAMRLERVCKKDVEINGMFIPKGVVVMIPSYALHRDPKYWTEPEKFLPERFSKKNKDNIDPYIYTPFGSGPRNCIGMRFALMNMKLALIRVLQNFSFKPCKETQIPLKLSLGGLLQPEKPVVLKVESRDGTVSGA
Experiment: Cytochrome P450 Family 3 Subfamily A Member 4 (CYP3A4) small molecule antagonists: luciferase reporter qHTS assay (AID 1671201); note: nearly all actives have a fitted effect of over 50% in size
Conditions: P450-Glo CYP3A4 enzyme, luciferin luminescence, 1 h; series mostly up to 115 µM
Results filed as inconclusive are left out. Active and inactive are the calls of the source. Calls come from the whole dose curve; as a rule, active = well fitted inhibition curve with a large enough effect in the repeat runs; inconclusive = weak or mixed curves; inactive = no such curve, though single readings can be large or run the other way.
Possible outcomes: TRUE = active, FALSE = inactive

[
  {
    "COMPOUND": "CCc1oc2ccccc2c1C(=O)c1cc(Br)c(O)c(Br)c1",
    "CLASS_ASSIGNMENT": "FALSE"
  },
  {
    "COMPOUND": "CC(=O)OCC(C)OC(C)=O (configuration not stated)",
    "CLASS_ASSIGNMENT": "FALSE"
  },
  {
    "COMPOUND": "CC1(C)CCC(C)(C)c2cc(C(=O)Nc3ccc(C(=O)O)cc3)ccc21",
    "CLASS_ASSIGNMENT": "FALSE"
  },
  {
    "COMPOUND": "CCN1/C(=C/C=C/c2sc3ccccc3[n+]2CC)Sc2ccccc21",
    "CLASS_ASSIGNMENT": "TRUE"
  },
  {
    "COMPOUND": "CCCCCCCCS(=O)C(C)Cc1ccc2c(c1)OCO2 (configuration not stated)",
    "CLASS_ASSIGNMENT": "TRUE"
  },
  {
    "COMPOUND": "CNc1ccc(O)cc1",
    "CLASS_ASSIGNMENT": "TRUE"
  },
  {
    "COMPOUND": "CCOC(=O)O[C@H](C)OC(=O)c1ccc2c(c1)cc(C(=O)NC1CCN(C(C)C)CC1)n2Cc1cc(-c2ccc(Cl)s2)on1",
    "CLASS_ASSIGNMENT": "TRUE"
  },
  {
    "COMPOUND": "CCCCN(CCCC)C(=O)N(CCCC)CCCC",
    "CLASS_ASSIGNMENT": "TRUE"
  },
  {
    "COMPOUND": "CCOc1ccc2nc3cc(N)ccc3c(N)c2c1",
    "CLASS_ASSIGNMENT": "FALSE"
  },
  {
    "COMPOUND": "Nc1ccc2cc(S(=O)(=O)O)cc(O)c2c1N=Nc1ccccc1C(F)(F)F",
    "CLASS_ASSIGNMENT": "FALSE"
  },
  {
    "COMPOUND": "O=[N+]([O-])c1ccccc1Nc1ccccc1",
    "CLASS_ASSIGNMENT": "FALSE"
  },
  {
    "COMPOUND": "CC1=C(/C=C/C(C)=C/C=C/C(C)=C/C=O)C(C)(C)CCC1",
    "CLASS_ASSIGNMENT": "TRUE"
  },
  {
    "COMPOUND": "CCCCCCCCCCn1cc[n+](CCCCCCCCCC)c1C",
    "CLASS_ASSIGNMENT": "TRUE"
  },
  {
    "COMPOUND": "O=C1c2ccccc2Cc2ccccc21",
    "CLASS_ASSIGNMENT": "TRUE"
  },
  {
    "COMPOUND": "CCN(CC)CCCC(C)Nc1c2ccc(Cl)cc2nc2ccc(OC)cc12 (configuration not stated)",
    "CLASS_ASSIGNMENT": "FALSE"
  },
  {
    "COMPOUND": "CCCCc1oc2ccc(NS(C)(=O)=O)cc2c1C(=O)c1ccc(OCCCN(CCCC)CCCC)cc1",
    "CLASS_ASSIGNMENT": "FALSE"
  },
  {
    "COMPOUND": "CCC(Cl)C(Cl)C(Cl)CC(Cl)C(Cl)C(C)Cl (configuration not stated)",
    "CLASS_ASSIGNMENT": "FALSE"
  },
  {
    "COMPOUND": "Cc1cc(=O)oc2cc(N(C)C)ccc12",
    "CLASS_ASSIGNMENT": "TRUE"
  },
  {
    "COMPOUND": "O=S1(=O)CC(Cl)(Cl)C(Cl)(Cl)C1",
    "CLASS_ASSIGNMENT": "TRUE"
  },
  {
    "COMPOUND": "c1cc(C(c2ccc(OCC3CO3)cc2)c2ccc(OCC3CO3)cc2)ccc1OCC1CO1 (configuration not stated)",
    "CLASS_ASSIGNMENT": "TRUE"
  },
  {
    "COMPOUND": "CCN(CCC#N)c1ccc(N=Nc2c(Cl)cc([N+](=O)[O-])cc2Cl)cc1",
    "CLASS_ASSIGNMENT": "FALSE"
  },
  {
    "COMPOUND": "CCCCCCCCCCCCc1ccc(O)cc1",
    "CLASS_ASSIGNMENT": "TRUE"
  }
]
